test system: RAW264.7; assay: Cytotoxicity against mouse RAW264.7 cells at 50 uM by MTT assay relative to control; type: functional
readout_name: Activity (%)

given_smiles=O=C(Cc1ccccc1Nc1c(Cl)cccc1Cl)OCc1ccco1 observed_measurement=77
given_smiles=CC(=O)Nc1ccc(OC(=O)Cc2ccccc2Nc2c(Cl)cccc2Cl)cc1 observed_measurement=108
given_smiles=COc1ccc(COC(=O)Cc2ccccc2Nc2c(Cl)cccc2Cl)cc1 observed_measurement=84
given_smiles=COC(=O)c1ccc(COC(=O)Cc2ccccc2Nc2c(Cl)cccc2Cl)cc1 observed_measurement=100
given_smiles=O=C(Cc1ccccc1Nc1c(Cl)cccc1Cl)Oc1ccc2c(c1)OCO2 observed_measurement=97
given_smiles=C=CCc1ccc(OC(=O)Cc2ccccc2Nc2c(Cl)cccc2Cl)c(OC)c1 observed_measurement=98
given_smiles=O=C(O)Cc1ccccc1Nc1c(Cl)cccc1Cl observed_measurement=100
given_smiles=COC(=O)c1ccccc1-c1cccc(COC(=O)Cc2ccccc2Nc2c(Cl)cccc2Cl)c1 observed_measurement=102
given_smiles=O=C(Cc1ccccc1Nc1c(Cl)cccc1Cl)Oc1ccc2ccc(=O)oc2c1 observed_measurement=53
given_smiles=CCc1ccc(OC(=O)Cc2ccccc2Nc2c(Cl)cccc2Cl)cc1 observed_measurement=109
given_smiles=COC(=O)c1ccccc1COC(=O)Cc1ccccc1Nc1c(Cl)cccc1Cl observed_measurement=44
given_smiles=COc1cc(COC(=O)Cc2ccccc2Nc2c(Cl)cccc2Cl)cc(OC)c1 observed_measurement=73
given_smiles=O=C(Cc1ccccc1Nc1c(Cl)cccc1Cl)OC/C=C/c1ccccc1 observed_measurement=95
given_smiles=COc1ccc(COC(=O)Cc2ccccc2Nc2c(Cl)cccc2Cl)cc1OC observed_measurement=93
given_smiles=COC(=O)c1ccc(OC(=O)Cc2ccccc2Nc2c(Cl)cccc2Cl)cc1 observed_measurement=98
given_smiles=O=C(Cc1ccccc1Nc1c(Cl)cccc1Cl)OCc1ccccc1 observed_measurement=94
given_smiles=CC(C)(C)c1ccc(COC(=O)Cc2ccccc2Nc2c(Cl)cccc2Cl)cc1 observed_measurement=100
